tested on: S180 ascites; assay: Screening for anti-tumor activity against S180 ascites (S180a) in mice; format: in vivo, female CFW Swiss mice; settings: Dose 80 mg/kg, medium H2O, S180a in mice, survivors/mice in set
endpoint: 30-Day Survivors

### Prompt Indicate the recorded 30-Day Survivors value for this molecule: Cc1ccc(O)c[n+]1[Pt-2]([NH3+])([NH3+])[Cl].[Cl-] (centres unmarked)
### Response 4/6

### Prompt Indicate the recorded 30-Day Survivors value for this molecule: [Cl-].[NH3+][Pt-2]([NH3+])([Cl])[n+]1ccc(Cl)cc1 (centres unmarked)
### Response 4/6

### Prompt Indicate the recorded 30-Day Survivors value for this molecule: `N.N.[Cl-].[Cl][Pt+].c1ccncc1`
### Response 0/6

### Prompt Indicate the recorded 30-Day Survivors value for this molecule: [Cl-].[Cl][Pt-2]1([n+]2ccccc2)[NH2+]C2CCCCC2[NH2+]1 (centres unmarked)
### Response 0/6

### Prompt Indicate the recorded 30-Day Survivors value for this molecule: [Cl-].[NH3+][Pt-2]([NH3+])([Cl])[n+]1cccc(O)c1 (centres unmarked)
### Response 1/6

---

Exercise: for every item that follows, state its recorded 30-Day Survivors.
test system: S180 ascites; experiment: Screening for anti-tumor activity against S180 ascites (S180a) in mice; format: in vivo, female CFW Swiss mice; conditions: Dose 80 mg/kg, medium H2O, S180a in mice, survivors/mice in set

### Prompt Indicate the recorded 30-Day Survivors value for this compound: Cc1cc[n+]([Pt-2]([NH3+])([NH3+])[Cl])cc1.[Cl-] (stereo not drawn)
### Response 1/6

### Prompt Indicate the recorded 30-Day Survivors value for this compound: Cc1cccc(O)[n+]1[Pt-2]([NH3+])([NH3+])[Cl].[Cl-] (stereo not drawn)
### Response 0/6

### Prompt Indicate the recorded 30-Day Survivors value for this compound: `N.N.Nc1cc[nH]c(=O)n1.[Cl-].[Cl][Pt+]`
### Response 4/6

---

system: S180 ascites; experiment: Screening for anti-tumor activity against S180 ascites (S180a) in mice; type: in vivo, female CFW Swiss mice; settings: Dose 80 mg/kg, medium H2O, injected day 1, S180a in mice, upper limit 100%
endpoint: %ILS (%)
Respond numerically; units are % and should not be typed.

### Prompt Report value: %ILS, system: S180 ascites, compound: [Cl-].[NH3+][Pt-2]([NH3+])([Cl])[n+]1ccc(Cl)cc1 (stereo not shown) [Example 8]
### Response 36

### Prompt Report value: %ILS, system: S180 ascites, compound: Cc1cc[n+]([Pt-2]([NH3+])([NH3+])[Cl])cc1.[Cl-] (stereo not shown) [Example 5]
### Response 66

### Prompt Report value: %ILS, system: S180 ascites, compound: Cc1cccc(O)[n+]1[Pt-2]([NH3+])([NH3+])[Cl].[Cl-] (stereo not shown) [Example 3]
### Response 15

### Prompt Report value: %ILS, system: S180 ascites, compound: [Cl-].[NH3+][Pt-2]([NH3+])([Cl])[n+]1cccc(O)c1 (stereo not shown) [Example 4]
### Response 69

### Prompt Report value: %ILS, system: S180 ascites, compound: N.N.Nc1cc[nH]c(=O)n1.[Cl-].[Cl][Pt+] [Example 6]
### Response 92

### Prompt Report value: %ILS, system: S180 ascites, compound: Cc1ccc(O)c[n+]1[Pt-2]([NH3+])([NH3+])[Cl].[Cl-] (stereo not shown) [Example 7]
### Response 93

### Prompt Report value: %ILS, system: S180 ascites, compound: [Cl-].[Cl][Pt-2]1([n+]2ccccc2)[NH2+]C2CCCCC2[NH2+]1 (stereo not shown) [Example 19]
### Response 15

Value source: patent EP0199524B1
